System: MOLT-4 leukemia
PROCEDURE_DETAILS: NCI tumour cell line growth inhibition, 48 h
PROPERTY_LABEL: TGI (µM)
Please respond with the number in µM and leave the unit unwritten.

Examples with answers:
| TEST_SMILES | TGI / µM |
| --- | --- |
| COc1ccc(C(=O)/C=C/c2cccc(Cl)c2)cc1S(N)(=O)=O | 6.15 |
| Cn1cc(-c2cc3nc(-c4c[nH]c5ccc(Cl)cc45)cc(N)n3n2)c2ccccc21 | 4.18 |

Now, please, on to the next molecule.
Recorded result, O=C(Nc1ccc(F)cc1)Nc1nc2ccc([N+](=O)[O-])cc2s1 , TGI: 6.77

###

Test system: MDA-MB-468 breast
PROCEDURE_DETAILS: NCI tumour cell line growth inhibition, 48 h
PROPERTY_LABEL: TGI
# output: numeric value plus its unit

| TEST_SMILES | RESULT |
| --- | --- |
| N/C(=N\C(N)=N\c1nc2ccccc2s1)c1cnccn1 | 6.07 µM |
| COc1ccc(-c2cc(-c3ccccc3)nc(NCCNc3ccnc4cc(Cl)ccc34)n2)cc1 | 1.21 µM |
| NC(N)=N/N=C(/c1ccccc1)c1ccccc1F | 4.94 µM |

Record COc1ccc2[nH]c(O)c(N=Nc3nc(-c4ccccc4)cs3)c2c1 has MDA-MB-468 breast TGI equal to 5.35 µM

Record COc1ccc(C(=O)/C=C/c2cccc(Cl)c2)cc1S(N)(=O)=O has MDA-MB-468 breast TGI equal to 2.93 µM

Record C#CC#CC#CC#CC#CC#CC#CC#CC[C@@H]1OC[C@@H](COC(=O)O[C@@H](C(=O)O[C@H]2C[C@@]3(O)[C@@H](OC(=O)c4ccccc4)[C@@H]4[C@]5(OC(C)=O)CO[C@@H]5C[C@H](O)[C@@]4(C)C(=O)[C@H](OC(C)=O)C(=C2C)C3(C)C)[C@@H](NC(=O)c2ccccc2)c2ccccc2)O1 has MDA-MB-468 breast TGI equal to 0.56 µM

Record N#CC(NC(=O)CCl)=C(Cl)Cl has MDA-MB-468 breast TGI equal to 3.48 µM

Record CC1(C)CC[C@]2(C(=O)O)CC[C@]3(C)C(=CC[C@@H]4[C@@]5(C)C/C(=C/c6ccco6)C(=O)C(C)(C)[C@@H]5CC[C@]43C)[C@@H]2C1 has MDA-MB-468 breast TGI equal to 30.9 µM

Record Clc1ccc2c(NCCCN3CCN(c4nc(N5CCOCC5)nc5ccccc45)CC3)ccnc2c1 has MDA-MB-468 breast TGI equal to 3.66 µM

Record COc1ccc(/C(C)=C(\c2ccc(Cl)cc2)c2ccc(OCCN3CCCCCC3)cc2)cc1F has MDA-MB-468 breast TGI equal to 5.89 µM

Record COc1ccc(/C=C/C(C)=N/OCC(=O)Nc2ccc(Cl)cc2)cc1 has MDA-MB-468 breast TGI equal to 8.34 µM

Record COc1ccc(/C=C\c2cc(OC)c(OC)c(OC)c2)c(NS(=O)(=O)c2ccc(C(C)(C)C)cc2)c1O has MDA-MB-468 breast TGI equal to 22.7 µM

Record CCSc1ncc(Br)c(Sc2nc(N)nc3nc[nH]c23)n1 has MDA-MB-468 breast TGI equal to 7.81 µM

###

Consider the following molecules and their measured GI50 readings.
Tested on: NCI-H226 lung
PROCEDURE_DETAILS: NCI tumour cell line growth inhibition, 48 h

Record O=C(Nc1ccc(F)cc1)Nc1nc2ccc([N+](=O)[O-])cc2s1 has NCI-H226 lung GI50 equal to 3340 nM

Record COc1ccc(C(=O)/C=C/c2cccc(Cl)c2)cc1S(N)(=O)=O has NCI-H226 lung GI50 equal to 2830 nM

Record O=C(NO)c1ccc(CNC(=O)[C@H]2Cc3c([nH]c4ccccc34)[C@H](c3ccccc3)N2)cc1 has NCI-H226 lung GI50 equal to 2700 nM

Record Cn1cc(-c2cc3nc(-c4c[nH]c5ccc(Cl)cc45)cc(N)n3n2)c2ccccc21 has NCI-H226 lung GI50 equal to 1890 nM
